target: acetylcholine receptor; assay: SPR, AchR immobilised on chip, peptide at 10 uM
result type: Binding affinity (RU)

binder	unit abbrev	Binding affinity
KLITRR [6mer-2-275]	RU	135
KWVQRK [6mer-2-269]	RU	123
KRRYKK [6mer-2-286]	RU	139
KSRLRR [6mer-2-270]	RU	148
KLRTKR [6mer-2-274]	RU	148
KLRQRR [6mer-2-273]	RU	131
KGISKR [6mer-2-308]	RU	148
KSIYRR [6mer-2-280]	RU	153
